Below: a set of entries, each annotated with reported normalized RNA/DNA level with ligand (log10).
B1: library; a variant is named by its letters at N, in order (parent)
chain: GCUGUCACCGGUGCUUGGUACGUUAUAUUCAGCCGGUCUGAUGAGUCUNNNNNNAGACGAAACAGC

Variants of: B1
measurement description: normalized RNA/DNA level with ligand (relative to sTRSVctl = 100) (log10 (% of sTRSVctl)); HEK293T overexpressing SLC46A1; ligand concentration (+) RNA-Seq: 6 mM; higher = less ribozyme self-cleavage, higher mRNA level
experimental conditions: with (6R,S)-folinic acid; ligand present: yes
# respond with the number and nothing more

Example variants with recorded normalized RNA/DNA level with ligand (log10):
>>> print(df.to_string())
   sequence_change  measured_value
0           GUUCUC            2.08
1           UCUCCC            2.06

Lookup: Assign normalized RNA/DNA level with ligand (log10) to the following record: CGGUCU
Found: 2.05

Lookup: Assign normalized RNA/DNA level with ligand (log10) to the following record: UACUCC
Found: 2.03

Lookup: Assign normalized RNA/DNA level with ligand (log10) to the following record: GCGAGA
Found: 2.03

Lookup: Assign normalized RNA/DNA level with ligand (log10) to the following record: GGGAGC
Found: 1.96

Lookup: Assign normalized RNA/DNA level with ligand (log10) to the following record: UAGGAC
Found: 2

Lookup: Assign normalized RNA/DNA level with ligand (log10) to the following record: UGGAGC
Found: 2.06

Lookup: Assign normalized RNA/DNA level with ligand (log10) to the following record: CACAGC
Found: 1.96

Lookup: Assign normalized RNA/DNA level with ligand (log10) to the following record: UGGUCU
Found: 2.03

Lookup: Assign normalized RNA/DNA level with ligand (log10) to the following record: UUCACC
Found: 2.02

Lookup: Assign normalized RNA/DNA level with ligand (log10) to the following record: GCGGAU
Found: 2.04

Lookup: Assign normalized RNA/DNA level with ligand (log10) to the following record: ACAGGU
Found: 1.97

Lookup: Assign normalized RNA/DNA level with ligand (log10) to the following record: GAUAUA
Found: 2

Lookup: Assign normalized RNA/DNA level with ligand (log10) to the following record: AUUCCA
Found: 2.02

Lookup: Assign normalized RNA/DNA level with ligand (log10) to the following record: CCAGAC
Found: 1.98

Lookup: Assign normalized RNA/DNA level with ligand (log10) to the following record: GUAGGC
Found: 2.03

Lookup: Assign normalized RNA/DNA level with ligand (log10) to the following record: AUCCCC
Found: 2.01

Lookup: Assign normalized RNA/DNA level with ligand (log10) to the following record: CGUAUC
Found: 2.07

Lookup: Assign normalized RNA/DNA level with ligand (log10) to the following record: AAAAAG
Found: 2

Lookup: Assign normalized RNA/DNA level with ligand (log10) to the following record: CCUGCC
Found: 2

Lookup: Assign normalized RNA/DNA level with ligand (log10) to the following record: UCGCAC
Found: 2.03
